# TARGET OR TEST SYSTEM: panel of more than 300 wild-type and mutant kinases (313 kinase panel) (Homo sapiens, UniProt P54762)
# EXPERIMENT SUMMARY: Kinase profiling in a biochemical assay panel (mobility shift assays and ELISA), %-inhibition at 1 μM; selectivity entropy
# MEASUREMENT SETUP: kinase EPHB1; compound at 1 μM
MEASURED PROPERTY: %-inhibition of EPHB1 (%)
The response must be a number in % with no trailing unit.

{"COMPOUND": "Cc1ccc(Nc2nccc(N(C)c3ccc4c(C)n(C)nc4c3)n2)cc1S(N)(=O)=O [pazopanib]", "UNIT": "%", "%-inhibition of EPHB1": 27}
{"COMPOUND": "COc1cc2nccc(Oc3ccc(NC(=O)C4(C(=O)Nc5ccc(F)cc5)CC4)cc3)c2cc1OC [cabozantinib]", "UNIT": "%", "%-inhibition of EPHB1": 95}
{"COMPOUND": "CC(C)(C)c1nc(-c2cccc(NS(=O)(=O)c3c(F)cccc3F)c2F)c(-c2ccnc(N)n2)s1 [dabrafenib]", "UNIT": "%", "%-inhibition of EPHB1": 12}
{"COMPOUND": "COc1cc2c(Nc3ccc(Br)cc3F)ncnc2cc1OCC1CCN(C)CC1 [vandetanib]", "UNIT": "%", "%-inhibition of EPHB1": 96}
{"COMPOUND": "CO[C@H]1C[C@@H]2CC[C@@H](C)[C@@](O)(O2)C(=O)C(=O)N2CCCC[C@H]2C(=O)O[C@H]([C@H](C)C[C@@H]2CC[C@@H](OCCO)[C@H](OC)C2)CC(=O)[C@H](C)/C=C(\\C)[C@@H](O)[C@@H](OC)C(=O)[C@H](C)C[C@H](C)/C=C/C=C/C=C/1C [everolimus]", "UNIT": "%", "%-inhibition of EPHB1": -0.233}

Input line: State its %-inhibition of EPHB1: CC(=O)Nc1cccc(-n2c(=O)n(C3CC3)c(=O)c3c(Nc4ccc(I)cc4F)n(C)c(=O)c(C)c32)c1 [trametinib]
Output line: -8

###

# Test system: forty-four human cancer cell lines
# EXPERIMENT SUMMARY: Cell proliferation assay (ATPlite, 72 hours) in the 44 cell line Oncolines panel
# Type: cell-based
# MEASUREMENT SETUP: Homo sapiens, LS174T, read-out: cell panel IC50, LS 174T
Catalogue of pIC50 readings, one per entry.
Please keep in mind that pIC50 is minus log10 of the molar concentration; only the number is needed.

Example entries begin here.
{"COMPOUND STRUCTURE": "CNC(=O)c1cc(Oc2ccc(NC(=O)Nc3ccc(Cl)c(C(F)(F)F)c3)cc2)ccn1", "pIC50": 4.93}
{"COMPOUND STRUCTURE": "Cc1ccc(C(=O)Nc2ccc(CN3CCN(C)CC3)c(C(F)(F)F)c2)cc1C#Cc1cnc2cccnn12", "pIC50": 5.69}
{"COMPOUND STRUCTURE": "CS(=O)(=O)CCNCc1ccc(-c2ccc3ncnc(Nc4ccc(OCc5cccc(F)c5)c(Cl)c4)c3c2)o1", "pIC50": 5.15}
{"COMPOUND STRUCTURE": "Cc1cn(-c2cc(NC(=O)c3ccc(C)c(Nc4nccc(-c5cccnc5)n4)c3)cc(C(F)(F)F)c2)cn1", "pIC50": 5.21}

Here's the next entry for you.
Input line: Report measured pIC50; entry is CO[C@H]1C[C@@H]2CC[C@@H](C)[C@@](O)(O2)C(=O)C(=O)N2CCCC[C@H]2C(=O)O[C@H]([C@H](C)C[C@@H]2CC[C@@H](OC(=O)C(C)(CO)CO)[C@H](OC)C2)CC(=O)[C@H](C)/C=C(\C)[C@@H](O)[C@@H](OC)C(=O)[C@H](C)C[C@H](C)/C=C/C=C/C=C/1C
Output line: 7.06

Attribution: paper PMC3961306
